Provide the reported pEC50 of each item.
Biological target: UniProt P34972
Sequence (P34972 whole entry): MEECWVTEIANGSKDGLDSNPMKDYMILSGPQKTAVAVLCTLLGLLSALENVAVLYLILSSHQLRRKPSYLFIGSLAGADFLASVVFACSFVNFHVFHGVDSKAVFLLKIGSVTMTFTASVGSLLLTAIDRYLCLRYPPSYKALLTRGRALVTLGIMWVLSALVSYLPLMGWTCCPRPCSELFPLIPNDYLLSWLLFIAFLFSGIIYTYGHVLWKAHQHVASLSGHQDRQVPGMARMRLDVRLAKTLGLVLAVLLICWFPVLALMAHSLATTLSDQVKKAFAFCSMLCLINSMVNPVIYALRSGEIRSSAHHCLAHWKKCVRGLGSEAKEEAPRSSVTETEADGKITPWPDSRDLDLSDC
Assay: Agonist activity at human recombinant CB2 receptor expressed in CHO cells assessed as inhibition forskolin-induced cAMP release
pEC50 here is simply -log10 of the concentration when that concentration is written in mol/L.

If you can, please state the reported pEC50 value of "CCS(=O)(=O)c1ccc2c(c1)nc(C(C)(C)C)n2C[C@@H]1CCCO1" .
7.96

Item "CN(C)CCn1c(CC(C)(C)C)nc2cc(S(=O)(=O)CC(C)(C)O)ccc21" has what recorded pEC50?
7.92

Consider the molecule shown here: "CC(C)(C)Cc1nc2cc(S(=O)(=O)Cc3ccccc3)ccc2n1CC1CC1" What is its recorded pEC50?
8.19

Entry under review: "CCS(=O)(=O)c1ccc2c(c1)nc(C(C)(C)C)n2CCOC(F)(F)F" . Reported pEC50?
8.28

For the molecule "CCS(=O)(=O)c1ccc2c(c1)nc(CC1CC1)n2CC1CC1" , what pEC50 is on record?
6.37

Need pEC50, item "CCS(=O)(=O)c1ccc2c(c1)nc(C1(C)CCCC1)n2CC1CC1"
8.02

Bench note: what pEC50 did "CC(C)(C)Cc1nc2cc(S(=O)(=O)C(C)(C)CO)ccc2n1CC1CC1" show?
8.92

# lookup: pEC50 of "CN(C)CCS(=O)(=O)c1ccc2c(c1)nc(CC(C)(C)C)n2CC1CC1"
7.49

Fill in the blank: the reported pEC50 of "CCS(=O)(=O)c1ccc2c(c1)nc(C1CCC1)n2CC1CC1" is ____.
7.09

Param item = "CCS(=O)(=O)c1ccc2c(c1)nc(C(C)(C)C)n2CCN(C)C" ; retrieve measured pEC50.
7.41

// lookup pEC50 for "CCS(=O)(=O)c1ccc2c(c1)nc(C(C)(C)C)n2C1CC1"
6.97

Param item = "CCS(=O)(=O)c1ccc2c(c1)nc(C(C)C)n2CC1CC1" ; retrieve measured pEC50.
6.88

Name the reported pEC50 value associated with the molecule "CCS(=O)(=O)c1ccc2c(c1)nc(CCC(C)C)n2CC1CC1"
7.17

So what's the measured pEC50 for this one? "CC(C)(C)Cc1nc2cc(S(=O)(=O)C(C)(C)C)ccc2n1CC1CC1"
9.37
